# System: biotinyl-Ile-oxazolone
# assay info: self-aminoacylation, catalytic enhancement (BIO) (fold over background); higher = more active; k-Seq, kA / k0A0; sequences stand for … in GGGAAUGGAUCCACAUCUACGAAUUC…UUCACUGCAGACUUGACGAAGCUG
Variants at the floor of the assay were thinned out.
assay readout: self-aminoacylation

input sequence: AUUCACCCAGGUCAUCGUGUG [Fam2.2 aminoacylation ribozyme variant]
self-aminoacylation: 0.798
--
input sequence: CCACACUUCUUGCAAUCGGUC [Fam1B.1 aminoacylation ribozyme variant]
self-aminoacylation: 0.783
--
input sequence: AUUACGCAGGUCAUCGAGUGA [Fam2.1 aminoacylation ribozyme variant]
self-aminoacylation: 2.73
--
input sequence: AUUCACCUAGGUAAUCCGGUG [Fam2.2 aminoacylation ribozyme variant]
self-aminoacylation: 2.33

Form: sequence = CCACAGUUCAAGCCAUCGGUC [Fam1B.1 aminoacylation ribozyme variant] ; self-aminoacylation = 1.87

---

# Test system: biotinyl-Met-oxazolone
# assay info: self-aminoacylation, catalytic enhancement (BMO) (fold over background); higher = more active; k-Seq, kA / k0A0; sequences stand for … in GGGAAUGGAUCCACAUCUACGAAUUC…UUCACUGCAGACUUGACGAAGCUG
This sample holds only a part of the variants without activity.
Overview of recorded self-aminoacylation for various sequences
Kindly provide the number alone.

input sequence: AUUACCCUGAUCAUCGAGAGA [Fam2.1 aminoacylation ribozyme variant]
assay readout: self-aminoacylation
value observed: 0.577
--
input sequence: ACUCACCUAUGUCAUCGGGUG [Fam2.2 aminoacylation ribozyme variant]
assay readout: self-aminoacylation
value observed: 5.4
--
input sequence: AUUCCCCUGGUCGUCGAGUGA [Fam2.1 aminoacylation ribozyme variant]
assay readout: self-aminoacylation
value observed: 1.42

Measured self-aminoacylation, CCUCCCUUCAAGCAAUCGGUC [Fam1B.1 aminoacylation ribozyme variant] : 0.881

Measured self-aminoacylation of CAACUUCAAACAAUCGGCCUG [Fam1A.1 aminoacylation ribozyme variant] : 4.11

The reported value for CUACCUCUAACAAUCGGUCUG [Fam1A.1 aminoacylation ribozyme variant] in terms of self-aminoacylation is 0.915

---

# System: biotinyl-Leu-oxazolone
# assay info: self-aminoacylation, catalytic enhancement (BLO) (fold over background); higher = more active; k-Seq, kA / k0A0; sequences stand for … in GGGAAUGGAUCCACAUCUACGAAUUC…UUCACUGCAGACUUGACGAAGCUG
Variants at the floor of the assay were thinned out.
Below, each entry is listed alongside its reported self-aminoacylation.
Provide a numeric answer; units are not to be included.

Here is how some sequences turned out for self-aminoacylation.
input sequence: AAGUUUGCUGAUAGCCGCAAG [Fam3.1 aminoacylation ribozyme variant]
self-aminoacylation: 0.736
//
input sequence: AAGUUUGAGAAUAGUCGCAAG [Fam3.1 aminoacylation ribozyme variant]
self-aminoacylation: 1.25
//
input sequence: CCACGCUUCAAGAAAUCGGUC [Fam1B.1 aminoacylation ribozyme variant]
self-aminoacylation: 1.19
//
input sequence: CUACUCCAAACAAUCGGACUG [Fam1A.1 aminoacylation ribozyme variant]
self-aminoacylation: 0.6
//
input sequence: CAGUUUGGUAAUAGUCGCAAG [Fam3.1 aminoacylation ribozyme variant]
self-aminoacylation: 1.73

Input CCACACUUCAAGCCAUCGGUA [Fam1B.1 aminoacylation ribozyme variant] . Output self-aminoacylation: 1.88

Value of measured self-aminoacylation for the entry CUAGUGCAAACAAUCGGUCUG [Fam1A.1 aminoacylation ribozyme variant] : 1.03

The measured self-aminoacylation associated with GCACACUUCCAGCAAUCGGUC [Fam1B.1 aminoacylation ribozyme variant] reads 1.73

Value of measured self-aminoacylation for the entry AUUACCCUAGUCCUCGAGUGA [Fam2.1 aminoacylation ribozyme variant] : 3.93

# sequence CGACAUCAAACAAUCGGUCUG [Fam1A.1 aminoacylation ribozyme variant] ; its self-aminoacylation = 0.934
